Biological target: his-labeled human IL-13 (immunogen A) (human) (UniProt P35225)
Test: FACS blocking, biotin-IL-13 on IL-13Ra2 HEK293 cells; antibody at 166.67 nM
Sorting guide: entries reporting mean fluorescence intensity beneath 30 go in the Y pile, the rest go in the N pile.

*Q* Is mean fluorescence intensity of 70F10A10 (lead antibody, mouse hybridoma) (antibody, V domains shown) VH: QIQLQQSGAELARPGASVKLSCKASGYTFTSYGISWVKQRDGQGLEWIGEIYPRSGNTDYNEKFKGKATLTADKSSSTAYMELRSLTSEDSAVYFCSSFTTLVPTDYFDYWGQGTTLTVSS VL: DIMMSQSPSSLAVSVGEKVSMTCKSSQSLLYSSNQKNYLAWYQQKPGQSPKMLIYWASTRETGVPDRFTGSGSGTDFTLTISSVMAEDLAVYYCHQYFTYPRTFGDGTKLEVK strictly below 30?
*A* N

Others:
*Q* Is mean fluorescence intensity of c35E2C3 (mouse-human chimeric IL-13 antibody) (antibody, V domains shown) VH: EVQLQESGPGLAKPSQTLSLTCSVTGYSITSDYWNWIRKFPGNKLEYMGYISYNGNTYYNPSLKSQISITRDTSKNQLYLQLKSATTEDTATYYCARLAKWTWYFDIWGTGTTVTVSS VL: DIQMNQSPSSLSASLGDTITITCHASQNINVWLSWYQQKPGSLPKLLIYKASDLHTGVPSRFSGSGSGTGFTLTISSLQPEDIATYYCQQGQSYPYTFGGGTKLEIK strictly below 30?
*A* Y

*Q* Is mean fluorescence intensity of c70F10A10 (mouse-human chimeric IL-13 antibody) (antibody, V domains shown) VH: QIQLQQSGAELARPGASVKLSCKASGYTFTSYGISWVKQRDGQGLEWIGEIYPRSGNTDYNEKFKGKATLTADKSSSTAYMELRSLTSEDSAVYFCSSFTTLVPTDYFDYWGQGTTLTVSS VL: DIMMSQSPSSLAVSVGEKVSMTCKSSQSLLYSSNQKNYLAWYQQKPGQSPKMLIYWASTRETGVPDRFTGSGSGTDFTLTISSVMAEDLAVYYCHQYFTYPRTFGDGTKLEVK strictly below 30?
*A* Y

*Q* Is mean fluorescence intensity of 35E2C3 (lead antibody, mouse hybridoma) (antibody, V domains shown, Mouse monoclonal antibody purified from hybridoma supernatant on Protein G) VH: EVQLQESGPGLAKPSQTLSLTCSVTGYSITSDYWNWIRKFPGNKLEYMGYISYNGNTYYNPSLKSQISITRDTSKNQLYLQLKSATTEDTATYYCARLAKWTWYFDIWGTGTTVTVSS VL: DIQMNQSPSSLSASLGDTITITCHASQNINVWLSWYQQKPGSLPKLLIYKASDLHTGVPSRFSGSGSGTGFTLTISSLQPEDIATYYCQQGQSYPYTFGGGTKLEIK strictly below 30?
*A* Y

*Q* Is mean fluorescence intensity of 28A2E11 (lead antibody, mouse hybridoma) (antibody, V domains shown, Mouse monoclonal antibody purified from hybridoma supernatant on Protein G) VH: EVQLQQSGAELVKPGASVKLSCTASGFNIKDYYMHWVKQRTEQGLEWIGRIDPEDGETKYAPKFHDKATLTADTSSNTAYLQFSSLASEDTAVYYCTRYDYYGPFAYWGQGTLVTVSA VL: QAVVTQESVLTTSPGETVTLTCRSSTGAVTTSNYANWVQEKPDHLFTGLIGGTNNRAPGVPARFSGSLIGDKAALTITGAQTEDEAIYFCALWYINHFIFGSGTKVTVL strictly below 30?
*A* N

Hello, the source for this data is patent US20190309059A1, in case you need it.
